Assay: Quantitative High-Throughput drug screen in 47 multiple myeloma cell lines against the NCATS MIPE library collection: KMS27_JCRB cell viability assay (AID 1918970); also: nearly all actives have a fitted effect of over 30% in size
Conditions: KMS27 myeloma cells, CellTiter-Glo ATP viability, 48 h; series mostly up to 45.8 µM
From the text: PI: Beverly A. Mock Ph.D. Laboratory of Cancer Biology and Genetics, Center for Cancer Research, National Cancer Institute, National Institute of Health, Bethesda, Maryland […] 5; Detector; 425V; Luminescence; Viewlux PerkinElmer. […] 1. […] Briefly, the corresponding myeloma cell lines were screened in 1,536-well plates with 500 cells, 5-uL per well for inhibition of cell viability (assessed by measuring ATP levels with CellTiterGlo). […]
Records with an inconclusive call do not appear. Activity calls are given as the source filed them. Calls follow the shape of the dose curve; as a rule, active = well fitted cell-killing curve with a large enough effect; inconclusive = small, poorly fitted or top-dose-only effect, or effect the other way; inactive = no such curve, though single readings can be large or run the other way.
Outcome codes: yes for active, no for inactive

- molecule: "CC(C)c1ccccc1Cc1cc(C(=O)Nc2ccc(S(=O)(=O)c3ccccc3C(C)(C)C)cc2)c(O)c(O)c1O"
  group: "no"
- molecule: "COc1ccc(F)c(F)c1C(=O)c1cnc(NC2CCN(S(C)(=O)=O)CC2)nc1N"
  group: "yes"
- molecule: "CC(=O)c1c(C)c2cnc(Nc3ccc(N4CCNCC4)cn3)nc2n(C2CCCC2)c1=O"
  group: "yes"
- molecule: "COC(=O)C1=C(C)NC(C)=C(C(=O)OCCN2CCN(C(c3ccccc3)c3ccccc3)CC2)C1c1cccc([N+](=O)[O-])c1 (configuration not stated)"
  group: "no"
- molecule: "CN(C)c1nc(Cc2ccc(NC(=O)c3ccc4ccccc4c3)cc2)nc(Cl)c1CC(=O)O"
  group: "yes"
- molecule: "COCCOc1ccc2c(c1)ncn2-c1ccc2cccc(N3CCC(N)CC3)c2n1"
  group: "yes"
- molecule: "Nc1ncnc2c1c(-c1cccc(OCc3ccccc3)c1)cn2C1CC(CN2CCCC2)C1 (configuration not stated)"
  group: "yes"
- molecule: "CC(C)c1cc(C(=O)N2Cc3ccc(CN4CCN(C)CC4)cc3C2)c(O)cc1O"
  group: "yes"
- molecule: "CC1(C)CCC(c2ccc(Cl)cc2)=C(CN2CCN(c3ccc(C(=O)NS(=O)(=O)c4ccc(N[C@H](CCN5CCOCC5)CSc5ccccc5)c(S(=O)(=O)C(F)(F)F)c4)cc3)CC2)C1"
  group: "yes"
- molecule: "Cc1coc2c1C(=O)C(=O)c1c-2ccc2c1CCCC2(C)C"
  group: "yes"
- molecule: "CN1CCC(CNc2ccc3ncc(-c4cccc(OC(F)(F)F)c4)n3n2)CC1"
  group: "yes"
- molecule: "CC(C)(C)c1cnc(CSc2cnc(NC(=O)C3CCNCC3)s2)o1"
  group: "yes"
- molecule: "CC(C)c1ccc(Cn2ccc3c4c(N)nc(NC5CC5)nc4ccc32)cc1"
  group: "yes"
- molecule: "COc1ccc(OC)c(-c2nnc3ccc(-c4ccc(OC)c(O[C@@H]5CCOC5)c4)nn23)c1"
  group: "yes"
- molecule: "CCC1=C[C@@H]2CN(C1)Cc1c([nH]c3ccccc13)[C@@](C(=O)OC)(c1cc3c(cc1OC)N(C)[C@@H]1[C@@](O)(C(=O)OC)[C@H](OC(C)=O)[C@]4(CC)C=CCN5CC[C@]31[C@@H]54)C2"
  group: "yes"
- molecule: "CC=C1NC(=O)[C@H]2CSSCCC=C[C@H](CC(=O)N[C@H](C(C)C)C(=O)N2)OC(=O)[C@H](C(C)C)NC1=O"
  group: "yes"
- molecule: "CCn1cc(-c2ccnc3[nH]c(-c4cccc(CN(C)C)c4)cc23)c(-c2ccc(NC(=O)N(C)C)cc2)n1"
  group: "yes"
